Hello, the source for this data is ChEMBL document CHEMBL5329154, in case you need it.

Overview of reported CC50 across a group of compounds:
- System: A498
- Assay procedure: Cytotoxicity against human A498 cells assessed as reduction in cell viability incubated for 72 hrs under hypoxic condition by SRB assay
- Type: functional
Property: CC50

Compound: C1=CC(c2nc(-c3cccnc3)no2)CC1 (stereo not drawn)
Result: 1530 nM
//
Compound: c1cncc(-c2noc(C3CCCC3)n2)c1
Result: 1790 nM
//
Compound: c1cncc(-c2noc(-c3nc[nH]n3)n2)c1
Result: 3910 nM
//
Compound: Cc1cccc(Nc2cc(Cl)nc(CSC(=O)O)n2)c1C
Result: 2940 nM
//
Compound: c1cncc(-c2noc(-c3nnsn3)n2)c1
Result: 1210 nM
//
Compound: c1cncc(-c2noc(-c3cc[nH]c3)n2)c1
Result: 2520 nM
//
Compound: C1=C(c2nc(-c3cccnc3)no2)CCC1
Result: 1390 nM
//
Compound: c1cncc(-c2noc(-c3ncsn3)n2)c1
Result: 2200 nM
//
Compound: c1cncc(-c2noc(-c3nnon3)n2)c1
Result: 2640 nM
//
Compound: Cn1ccc(-c2nc(-c3cccnc3)no2)c1
Result: 2010 nM
//
Compound: c1cncc(-c2noc(-c3ncon3)n2)c1
Result: 3760 nM
//
Compound: C1=CC(c2nc(-c3cccnc3)no2)=CC1
Result: 1370 nM
//
Compound: CCCCCc1nc(-c2cccnc2)no1
Result: 1660 nM
//
Compound: Cn1cnc(-c2nc(-c3cccnc3)no2)n1
Result: 4830 nM
//
Compound: c1cncc(-c2noc(-c3ccoc3)n2)c1
Result: 1520 nM
//
Compound: c1cncc(-c2noc(-c3ccsc3)n2)c1
Result: 1320 nM
//
Compound: c1cncc(-c2noc(-c3nn[nH]n3)n2)c1
Result: 5280 nM
//
Compound: Cn1nnc(-c2nc(-c3cccnc3)no2)n1
Result: 3420 nM
